So I've got a bunch of molecules here, and I need their pIC50 values.
Target: Bruton's Tyrosine Kinase (BTK), inactivated state (Homo sapiens (Human), UniProt Q06187)
Sequence (Q06187 whole entry): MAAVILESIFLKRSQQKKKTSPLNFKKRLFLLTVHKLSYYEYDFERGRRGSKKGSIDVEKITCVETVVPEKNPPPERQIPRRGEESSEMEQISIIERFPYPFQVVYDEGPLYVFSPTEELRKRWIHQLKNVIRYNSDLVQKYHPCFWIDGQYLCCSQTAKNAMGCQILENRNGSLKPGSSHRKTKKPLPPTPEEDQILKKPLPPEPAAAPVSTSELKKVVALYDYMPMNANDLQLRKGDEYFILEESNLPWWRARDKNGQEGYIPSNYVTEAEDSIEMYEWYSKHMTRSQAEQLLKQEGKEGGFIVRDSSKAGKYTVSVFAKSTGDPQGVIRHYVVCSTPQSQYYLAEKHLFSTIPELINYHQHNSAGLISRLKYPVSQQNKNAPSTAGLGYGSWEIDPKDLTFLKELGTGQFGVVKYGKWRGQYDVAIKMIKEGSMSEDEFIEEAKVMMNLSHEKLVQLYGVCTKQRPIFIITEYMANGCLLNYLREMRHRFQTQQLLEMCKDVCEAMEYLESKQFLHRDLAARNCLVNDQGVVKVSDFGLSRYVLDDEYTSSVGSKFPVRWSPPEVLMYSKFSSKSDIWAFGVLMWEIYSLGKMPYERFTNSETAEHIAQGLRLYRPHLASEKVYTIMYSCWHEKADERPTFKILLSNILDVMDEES
Assay: BTK inhibition TR-FRET competition assay
Conditions: TR-FRET competition with Kinase Tracer 178, 18-24 h at 14° C.
Answers are plain numbers, as −log10 of the molar value.

pIC50 of CC1CCCC(Nc2nc(Nc3cnn(C)c3)nc3[nH]cnc23)C1 (stereo not shown) on Bruton's Tyrosine Kinase (BTK), inactivated state (Homo sapiens (Human), UniProt Q06187)? 4.39

pIC50 of O=C(NC1CCCC(Nc2ncnc3[nH]cnc23)C1)c1ccccc1 (stereo not shown) on Bruton's Tyrosine Kinase (BTK), inactivated state (Homo sapiens (Human), UniProt Q06187)? 7.34

# map each molecule to its pIC50
1. Cn1cc(Nc2nc(NC3CCCC(NC(=O)c4ccc(C(C)(C)C)cc4)C3)c3nc[nH]c3n2)cn1 (stereo not shown)
2. CC(C)(C)c1ccc(C(=O)NC2CCCC(Nc3ncnc4[nH]cnc34)C2)cc1 (stereo not shown)
3. O=C(NCc1cccc(Cl)c1)C1CCCC(Nc2ncnc3[nH]cnc23)C1 (stereo not shown)

1: 7.24; 2: 5.02; 3: 4.00

# map each molecule to its pIC50
1. CC(C)(C)OC(=O)NC1CCCC(C(=O)O)C1 (stereo not shown)
2. Cn1cc(Nc2nc(NC3CCCCC3)c3nc[nH]c3n2)cn1

1: 6.96; 2: 5.55
